- System: Ataxin-2 (Homo sapiens)
- Measurement description: qHTS for Inhibitors of ATXN expression.
- Assay type: functional
Hit rate of the full screen: of about 400,000 compounds, about 2,100 (0.53%) were called active. Inconclusive results (about 14%) are left out. No rule for the calls is given here. Only a selection was taken, and actives are over-represented in it overall.
Outcome codes: Y for active, N for inactive

- Compound: "CCn1cc(C2N3CC4(C)CN2CC(C)(C3)C4=O)c2ccccc21 (centres undefined)"
  Class assignment: "N"
- Compound: "Cc1nn(-c2ccccc2)c(N2CCCC2)c1/C=N/Nc1ccc(S(=O)(=O)Nc2ccccc2)cc1[N+](=O)[O-]"
  Class assignment: "Y"
- Compound: "CN1C(=O)c2ccccc2N(C)C1c1ccccc1Cl (centres undefined)"
  Class assignment: "N"
- Compound: "O=C(/C=C/c1cn(CC(O)CN2CCc3ccccc32)c2ccccc12)c1ccc(Br)cc1 (centres undefined)"
  Class assignment: "N"
- Compound: "O=C(Oc1cccc2ccccc12)C1CC1"
  Class assignment: "N"
- Compound: "COc1cccc(N2C(=O)C3CCCN3C2=S)c1 (centres undefined)"
  Class assignment: "N"
- Compound: "Cc1ccc(-c2nc(Nc3ccc(N4CCOCC4)cc3)c3ccccc3n2)cc1"
  Class assignment: "N"
- Compound: "CCCn1c(CC)nc([N+](=O)[O-])c1S(=O)(=O)c1ccccc1"
  Class assignment: "Y"
- Compound: "COc1ccc2c(c1)CCCC21SC(NC(C)=O)=NN1C(C)=O (centres undefined)"
  Class assignment: "N"
- Compound: "COc1ccc(C(=O)/C=C/C(=O)N(CC(=O)NC2CCCCC2)Cc2ccccc2OC)c(O)c1"
  Class assignment: "Y"
- Compound: "O=C(O)CCC(=O)N1CCN(c2nc(-c3ccccc3)c3ccccc3n2)CC1"
  Class assignment: "N"
- Compound: "COCCNc1nc2c(-c3cccc(C(F)(F)F)c3)nnn2c2ccccc12"
  Class assignment: "N"
- Compound: "COc1ccc(-c2cc3ccc(OC(C)C(=O)O)cc3oc2=O)cc1 (centres undefined)"
  Class assignment: "N"
- Compound: "O=C(CC(=O)N/N=C/c1c(F)cccc1Cl)NCCc1ccccc1"
  Class assignment: "N"
- Compound: "Brc1ccc(C2=CC(c3ccco3)n3nnnc3N2)cc1 (centres undefined)"
  Class assignment: "N"
- Compound: "Cc1ccn2c(Nc3ccccc3C)c(-c3ccccn3)nc2c1"
  Class assignment: "Y"
- Compound: "COc1ccc(C(=O)/C=C/C(=O)N(CC(=O)NCCC(C)C)Cc2cccs2)c(O)c1"
  Class assignment: "Y"
- Compound: "CC(=O)Nc1ccc(CNc2nc(NCCN(C)C)nc3cc(-c4ccccc4)sc23)cc1"
  Class assignment: "Y"
- Compound: "c1cn2c(NC3CCCC3)c(-c3ccc(N4CCOCC4)cc3)nc2cn1"
  Class assignment: "N"
- Compound: "CCN(CC)C(=O)c1cc(-c2ccc3c(c2)OCO3)on1"
  Class assignment: "N"
- Compound: "COc1cccc(/C=C2\\SC(=S)N(CC(=O)N(C)C3CCS(=O)(=O)C3)C2=O)c1 (centres undefined)"
  Class assignment: "Y"
- Compound: "COCCCNc1nc2c(-c3cccc(C)c3)nnn2c2ccccc12"
  Class assignment: "N"
- Compound: "O=C1N=C(N2CCN(c3ccccc3)CC2)S/C1=C/c1ccco1"
  Class assignment: "N"
- Compound: "CCc1ccc(N(C(=O)c2ccco2)C(C(=O)NC2CCCC2)c2ccncc2)cc1 (centres undefined)"
  Class assignment: "N"
